B1: Azoarcus group I ribozyme (parent)
chain: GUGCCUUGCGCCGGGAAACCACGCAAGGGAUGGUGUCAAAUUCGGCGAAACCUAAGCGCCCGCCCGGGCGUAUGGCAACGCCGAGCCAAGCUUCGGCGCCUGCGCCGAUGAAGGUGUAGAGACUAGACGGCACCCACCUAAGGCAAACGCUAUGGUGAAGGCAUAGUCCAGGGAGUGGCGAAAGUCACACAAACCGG

Variants of: B1
Experiment: reverse-splicing fitness (ratio to wild type); higher = more active; in vitro selection; Mg2+ level not given
Could you label it Met if measured reverse-splicing fitness is 0.01 or higher, and Not met otherwise?

## Input Could you tell me if the measured reverse-splicing fitness of C82G A111U A120G C150U C169U U176G reaches 0.01 or more?
## Output Not met

## Input Test whether the variant C82G A120G C150G C169U U176G records reverse-splicing fitness of 0.01 or higher.
## Output Not met

## Input Does reverse-splicing fitness meet or surpass 0.01 for C82U A145C C169A ?
## Output Not met

## Input Please indicate if the recorded reverse-splicing fitness for C82G A111U A145G C169A U176G meets or exceeds 0.01.
## Output Not met

## Input Decide: reverse-splicing fitness of C82U A111G A120G C150A C169A U176C >= 0.01?
## Output Met

## Input Exam item: decide whether the reported reverse-splicing fitness for C82G A111U A120U A145C C150G C169U is at least 0.01.
## Output Not met

## Input Given the entry C82A A111U A120G C150G C169U , answer whether its reverse-splicing fitness meets or surpasses 0.01.
## Output Not met

## Input Decide: reverse-splicing fitness of C82G A111C A120G A145G C150A C169U U176C >= 0.01?
## Output Met

## Input Kindly determine if reverse-splicing fitness recorded for C82U A111U A120C A145U C150A C169U is above or exactly 0.01.
## Output Not met

## Input Evaluate C82A A111G A120G C150U U176G : reverse-splicing fitness at minimum 0.01?
## Output Not met

## Input Record C82G A111U A120U A145G C150U ; criterion: reverse-splicing fitness no lower than 0.01. Met?
## Output Met

## Input Quick check: does C82G A111C A120C A145U C169U U176A have reverse-splicing fitness greater than or equal to 0.01?
## Output Met

## Input reverse-splicing fitness >= 0.01 for C82A A120U A145C C169G ?
## Output Not met

## Input Decide: reverse-splicing fitness of C82A A120G C150U C169G U176G >= 0.01?
## Output Not met

## Input Hi, just wondering whether C82G A111G A120G A145G C150A C169U U176G shows reverse-splicing fitness of 0.01 or higher.
## Output Not met

## Input Answer whether reverse-splicing fitness of C82A A111C A120G A145U C169A U176A is greater than or equal to 0.01.
## Output Not met

## Input Would you say A111U A145C C150U C169G U176G shows reverse-splicing fitness at minimum 0.01?
## Output Not met

## Input Check the entry C82U A111C A120U A145G C150A C169U U176C : does reverse-splicing fitness equal or exceed 0.01?
## Output Not met

## Input Record C82U A111U A120U A145U C150A C169A U176G ; criterion: reverse-splicing fitness no lower than 0.01. Met?
## Output Not met

## Input Decide: is the reported value of reverse-splicing fitness for A111C A120U A145C C150G U176C equal to or greater than 0.01?
## Output Met

## Input Hello, I need to know if C82U A120C C169U has measured reverse-splicing fitness not below 0.01. Thanks!
## Output Met

## Input Item C150U C169G U176A with reverse-splicing fitness of 0.01 or above?
## Output Met

## Input Would you say C82A A145U C169U U176G shows reverse-splicing fitness at minimum 0.01?
## Output Not met

## Input Entry C82G A111U A120C A145U C150U C169G U176A : is its reverse-splicing fitness no less than 0.01?
## Output Met

## Input Check if reverse-splicing fitness >= 0.01 (inclusive). Item: C82G A120G A145C C150A C169U U176C
## Output Met

## Input Assess whether reported reverse-splicing fitness for C82U A111G A120C A145U U176G sits at 0.01 or higher.
## Output Not met

## Input # check: reverse-splicing fitness of C82U A111G A145U C150U C169G U176G is greater than or equal to 0.01
## Output Not met

## Input Quick check, reverse-splicing fitness >= 0.01? A111G A120U C150U C169A
## Output Not met

## Input Reported reverse-splicing fitness at or above 0.01? C82A A120U A145G C169A U176C
## Output Not met

## Input Is it the case that C82G A120G A145U C169A has reverse-splicing fitness reaching or exceeding 0.01?
## Output Met

## Input Hi, just wondering whether C82U A120U A145G C150U C169G U176A shows reverse-splicing fitness of 0.01 or higher.
## Output Not met

## Input Check the entry A111C A120C A145U C169G : does reverse-splicing fitness equal or exceed 0.01?
## Output Not met
